Where do the numbers come from? From the supplement of paper PMC12645437.

target: T1, CRBN, Q96SW2;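 note: pooled lentiviral library of zinc finger degron-EGFP fusions in mCherry-positive Jurkat cells, FACS-sorted after compound exposure, with degron abundance counted by next-generation sequencing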
T1 chain: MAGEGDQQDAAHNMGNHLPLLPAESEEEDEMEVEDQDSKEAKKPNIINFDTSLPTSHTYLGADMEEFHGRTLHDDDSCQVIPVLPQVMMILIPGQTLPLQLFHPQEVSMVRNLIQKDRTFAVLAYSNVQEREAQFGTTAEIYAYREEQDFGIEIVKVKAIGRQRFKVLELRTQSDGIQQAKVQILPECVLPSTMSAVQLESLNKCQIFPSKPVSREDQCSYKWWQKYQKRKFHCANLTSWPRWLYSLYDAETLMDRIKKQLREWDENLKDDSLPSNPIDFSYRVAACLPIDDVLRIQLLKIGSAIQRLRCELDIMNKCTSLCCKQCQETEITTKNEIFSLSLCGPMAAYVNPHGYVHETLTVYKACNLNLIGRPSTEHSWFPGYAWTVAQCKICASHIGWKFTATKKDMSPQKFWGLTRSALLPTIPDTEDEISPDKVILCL
test_details: log2 fold change of degron read counts, EGFP-low vs EGFP+ sorted cells (limma voom), compound-induced degradation; higher = more compound-induced degradation of the degron-EGFP fusion; degrons are variants of IKZF1/3 zinc finger 2; compound dose not given here
protocol_conditions: Jurkat; 18 h; compound: thalidomide
Whole data set: some 8,300 sequences, median “log2 fold change of degron read counts, EGFP-low vs EGFP+ sorted cells (limma voom), compound-induced degradation” near -1.1, cut for the highest 2% near 3.2. The entries come from a sample that favours the highest values as a whole.
Entry flag: MET if log2 fold change of degron read counts reaches -1; NOT MET if it does not.

Worked set:
FDCDICGAPFTQKGNLLRHIKL [46F_47D_49D_50I_52G_53A_54P_55F_67L_, Q9UKT9] = MET
LVCNQCGFDCTQKGNLLRHIKL [46L_47V_49N_50Q_52G_53F_54D_55C_67L_, Q9UKT9] = NOT MET
FMCNICGAWFTQKGNLLRHIKL [46F_47M_49N_50I_52G_53A_54W_55F_67L_, Q9UKT9] = NOT MET
FCCNQCGRVFTQKGNLLRHIKL [46F_47C_49N_50Q_52G_53R_54V_55F_67L_, Q9UKT9] = NOT MET
FICPICGACFTQKGNLLRHIKL [46F_47I_49P_50I_52G_53A_54C_55F_67L_, Q9UKT9] = MET

Say whether FSCPICGACFTQKGNLLRHIKL [46F_47S_49P_50I_52G_53A_54C_55F_67L_, Q9UKT9] shows log2 fold change of degron read counts of -1 or more.
MET

Answer whether log2 fold change of degron read counts of FVCPICGACFTQKGNLLRHIKL [46F_47V_49P_50I_52G_53A_54C_55F_67L_, Q9UKT9] is greater than or equal to -1.
MET
